Biological target: Human recombinant cathepsin K (Homo sapiens, UniProt P43235)
Construct: B. Turk, Josef Stefan Institute, Ljubljana, Slovenia (academic supplier)
Sequence (P43235 115-329): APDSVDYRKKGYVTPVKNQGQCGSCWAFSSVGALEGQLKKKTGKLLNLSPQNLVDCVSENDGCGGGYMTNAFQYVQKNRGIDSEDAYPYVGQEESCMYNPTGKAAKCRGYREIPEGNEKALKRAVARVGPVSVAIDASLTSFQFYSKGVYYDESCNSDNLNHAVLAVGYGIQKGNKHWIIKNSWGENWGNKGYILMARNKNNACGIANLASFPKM
Test: In vitro cathepsin Ki inhibition measurements
Type: biochemical
Details: Table 1; read-out: In vitro Ki (nM) vs Cath K
METRIC NAME: Ki (nM)

P. CN1CCN(c2ccc(C(=O)N[C@H](C(=O)N3CC[C@H]4OCC(=O)[C@H]43)C3CCCCC3)cc2)CC1
Q. CN1CCN(c2ccc(C(=O)N[C@H](C(=O)N3CC[C@H]4OCC(=O)[C@H]43)C3CCCC3)cc2)CC1
Quick one: lower Ki, P or Q ? Indicate which entry you chose by stating its label.
Q
(Q: 2 nM, P: 14 nM)

---

assay: Liver microsomal incubations (HLM stability); conditions: human liver microsomes, 25 μM
METRIC NAME: HLM % rem. @ 1 hr (%)

COMPOUND	UNIT ANNOTATION	RESULT NUMBER
CC(C)C[C@H](NC(=O)c1ccc(C(C)(C)C)cc1)C(=O)N1CC[C@H]2OCC(=O)[C@H]21 [reference compound]	%	70
CC(C)C[C@H](NC(=O)c1ccc(N2CCN(C)CC2)cc1)C(=O)N1CC[C@H]2OCC(=O)[C@H]21 [Example 1, reference compound]	%	95
CN1CCN(c2ccc(C(=O)N[C@H](C(=O)N3CC[C@H]4OCC(=O)[C@H]43)C3CCCC3)cc2)CC1	%	91
CN1CCN(c2ccc(C(=O)N[C@H](C(=O)N3CC[C@H]4OCC(=O)[C@H]43)C3CCCCC3)cc2)CC1	%	91
